Sourced from the kinase profiling compilation of Christmann-Franck et al. (2016)

System: MLTK (human) (UniProt Q9NYL2)
Sequence (Q9NYL2 whole entry, looked up): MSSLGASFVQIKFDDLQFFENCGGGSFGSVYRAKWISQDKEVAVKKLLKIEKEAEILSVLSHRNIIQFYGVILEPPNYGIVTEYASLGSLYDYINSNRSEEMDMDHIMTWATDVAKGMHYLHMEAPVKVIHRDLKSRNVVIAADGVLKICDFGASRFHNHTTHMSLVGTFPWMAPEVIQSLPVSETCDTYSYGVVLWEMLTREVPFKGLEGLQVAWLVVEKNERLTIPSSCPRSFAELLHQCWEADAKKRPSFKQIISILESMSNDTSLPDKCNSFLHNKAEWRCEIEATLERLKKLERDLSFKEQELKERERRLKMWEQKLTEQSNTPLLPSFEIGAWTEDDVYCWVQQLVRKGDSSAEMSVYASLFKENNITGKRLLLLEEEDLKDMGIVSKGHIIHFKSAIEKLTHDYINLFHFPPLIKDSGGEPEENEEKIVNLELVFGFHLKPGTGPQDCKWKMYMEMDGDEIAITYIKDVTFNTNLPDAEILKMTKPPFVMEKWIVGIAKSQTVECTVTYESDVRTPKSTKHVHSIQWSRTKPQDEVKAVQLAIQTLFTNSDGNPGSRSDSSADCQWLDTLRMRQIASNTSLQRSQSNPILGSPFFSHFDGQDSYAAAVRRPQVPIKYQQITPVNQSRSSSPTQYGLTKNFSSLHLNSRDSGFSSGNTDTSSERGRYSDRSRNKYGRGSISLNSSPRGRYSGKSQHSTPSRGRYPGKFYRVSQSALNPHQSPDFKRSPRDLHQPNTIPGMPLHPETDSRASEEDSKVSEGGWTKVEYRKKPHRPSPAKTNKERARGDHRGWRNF
Test description: KINOMEscan competition binding
Experimental parameters: compound 10.0 µM
Answer each item with its documented kinase still bound, per cent of control.
Answers are plain numbers, in %.

Chemical structure: CCN1CCN(C(=O)Cc2ccc(Nc3ncc(F)c(Nc4ccc(C(=O)Nc5ccccc5Cl)cc4)n3)cc2)CC1
Numeric result: 2.9

Chemical structure: Cc1n[nH]c2ccc(-c3cncc(OC[C@@H](N)Cc4c[nH]c5ccccc45)c3)cc12
Numeric result: 100

Chemical structure: COc1cc2ncn(-c3cc(OCc4ccccc4C(F)(F)F)c(C(N)=O)s3)c2cc1OC
Numeric result: 74

Chemical structure: NC(=O)Nc1cc(-c2cccc(F)c2)sc1C(=O)N[C@@H]1CCCNC1
Numeric result: 40

# ---- query compound ----
# lookup: kinase still bound, per cent of control of `CCN(CC)CCCCNc1ncc2c(n1)N(C)C(=O)N(c1c(Cl)c(OC)cc(OC)c1Cl)C2`
100

----------
System: FLT3 (human), P36888 [R834Q]
Test description: KINOMEscan competition binding
Experimental parameters: compound 10.0 µM
Answer each item with its documented kinase still bound, per cent of control.
One number for each entry, in %.

Chemical structure: O=c1cc(N2CCOCC2)oc2c(-c3cccc4c3sc3ccccc34)cccc12
Numeric result: 100
--
Chemical structure: CCCS(=O)(=O)Nc1ccc(F)c(C(=O)c2c[nH]c3ncc(-c4ccc(Cl)cc4)cc23)c1F
Numeric result: 100
--
Chemical structure: C=CC(=O)Nc1ccc(C(=O)c2sc(Nc3ccc(N4CCN(C)CC4)cc3OC)nc2N)cc1
Numeric result: 100
--
Chemical structure: CC(=O)c1c(C)c2cnc(Nc3ccc(N4CCNCC4)cn3)nc2n(C2CCCC2)c1=O
Numeric result: 61
--
Chemical structure: CNC(=O)Nc1ccc(-c2nc(N3CC4CCC(C3)O4)c3cnn(C4CCC5(CC4)OCCO5)c3n2)cc1
Numeric result: 79

Could I get kinase still bound, per cent of control for every one of these entries?
1. N#CCNC(=O)c1ccc(-c2ccnc(Nc3ccc(N4CCOCC4)cc3)n2)cc1
2. CCN(CCO)CCCOc1ccc2c(Nc3cc(CC(=O)Nc4cccc(F)c4)[nH]n3)ncnc2c1
3. N#Cc1c(NC(=O)c2cccc3ccccc23)sc2c1CCCC2
4. O=C(NOC[C@H](O)CO)c1ccc(F)c(F)c1Nc1ccc(I)cc1F
5. O=C(Nc1cccc(Nc2ncc(Br)c(NCCc3cnc[nH]3)n2)c1)N1CCCC1
6. O=C1NC(=O)/C(=C/c2ccc3nccc(-c4ccncc4)c3c2)S1
7. C=CC(=O)Nc1cc(NC(=O)c2ccc(C)c(NC(=O)c3ccno3)c2)cc(C(F)(F)F)c1
8. O=C(O)c1ccc(Nc2ncc3c(n2)-c2ccc(Cl)cc2C(c2c(F)cccc2F)=NC3)cc1

[100, 14, 88, 78, 7, 90, 100, 100]

----------
System: UniProtKB Q16832
Sequence (Q16832 whole entry, looked up): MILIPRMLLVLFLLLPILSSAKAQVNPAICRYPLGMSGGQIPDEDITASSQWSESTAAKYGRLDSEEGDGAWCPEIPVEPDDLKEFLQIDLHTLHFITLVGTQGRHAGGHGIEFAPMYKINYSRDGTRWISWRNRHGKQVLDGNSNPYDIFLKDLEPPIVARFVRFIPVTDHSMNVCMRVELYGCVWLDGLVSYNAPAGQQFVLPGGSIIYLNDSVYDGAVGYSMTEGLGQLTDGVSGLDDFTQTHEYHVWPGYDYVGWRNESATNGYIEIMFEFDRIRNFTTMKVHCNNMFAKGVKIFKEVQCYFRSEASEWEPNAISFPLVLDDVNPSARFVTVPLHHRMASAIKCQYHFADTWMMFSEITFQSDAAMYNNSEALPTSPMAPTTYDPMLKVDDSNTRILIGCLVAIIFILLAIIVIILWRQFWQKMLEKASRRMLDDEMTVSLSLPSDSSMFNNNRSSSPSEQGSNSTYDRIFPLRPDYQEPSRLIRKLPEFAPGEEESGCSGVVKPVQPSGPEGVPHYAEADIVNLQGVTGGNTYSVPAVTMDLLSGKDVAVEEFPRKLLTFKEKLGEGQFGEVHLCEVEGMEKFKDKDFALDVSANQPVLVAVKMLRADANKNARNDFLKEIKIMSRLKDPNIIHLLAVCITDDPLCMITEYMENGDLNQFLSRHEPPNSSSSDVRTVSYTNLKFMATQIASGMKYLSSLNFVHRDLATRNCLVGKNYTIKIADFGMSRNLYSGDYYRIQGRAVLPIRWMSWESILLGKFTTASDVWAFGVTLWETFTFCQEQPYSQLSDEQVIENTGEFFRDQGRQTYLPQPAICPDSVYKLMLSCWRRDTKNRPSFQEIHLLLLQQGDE
Test description: KINOMEscan competition binding
Experimental parameters: compound 10.0 µM
Answer each item with its documented kinase still bound, per cent of control.
Numbers only, in %.

Chemical structure: CCN(CC)CCCCNc1ncc2c(n1)N(C)C(=O)N(c1c(Cl)c(OC)cc(OC)c1Cl)C2
System: UniProtKB Q16832
kinase still bound, per cent of control, %: 30
//
Chemical structure: C=CC(=O)Nc1cc(-n2c(=O)ccc3cnc4ccc(-c5cn[nH]c5)cc4c32)ccc1C
System: UniProtKB Q16832
kinase still bound, per cent of control, %: 75
//
Chemical structure: COc1ccc(N(C(=O)Oc2c(C)cccc2C)c2ccnc(Nc3ccc(N4CCN(C)CC4)cc3)n2)c(OC)c1
System: UniProtKB Q16832
kinase still bound, per cent of control, %: 0

# lookup: kinase still bound, per cent of control of `CS(=O)(=O)N1CCN(Cc2cc3nc(-c4cccc5[nH]ncc45)nc(N4CCOCC4)c3s2)CC1`
100

----------
Answer each item with its documented kinase still bound, per cent of control.
System: ERN1 (human) (UniProt O75460)
Sequence (O75460 whole entry, looked up): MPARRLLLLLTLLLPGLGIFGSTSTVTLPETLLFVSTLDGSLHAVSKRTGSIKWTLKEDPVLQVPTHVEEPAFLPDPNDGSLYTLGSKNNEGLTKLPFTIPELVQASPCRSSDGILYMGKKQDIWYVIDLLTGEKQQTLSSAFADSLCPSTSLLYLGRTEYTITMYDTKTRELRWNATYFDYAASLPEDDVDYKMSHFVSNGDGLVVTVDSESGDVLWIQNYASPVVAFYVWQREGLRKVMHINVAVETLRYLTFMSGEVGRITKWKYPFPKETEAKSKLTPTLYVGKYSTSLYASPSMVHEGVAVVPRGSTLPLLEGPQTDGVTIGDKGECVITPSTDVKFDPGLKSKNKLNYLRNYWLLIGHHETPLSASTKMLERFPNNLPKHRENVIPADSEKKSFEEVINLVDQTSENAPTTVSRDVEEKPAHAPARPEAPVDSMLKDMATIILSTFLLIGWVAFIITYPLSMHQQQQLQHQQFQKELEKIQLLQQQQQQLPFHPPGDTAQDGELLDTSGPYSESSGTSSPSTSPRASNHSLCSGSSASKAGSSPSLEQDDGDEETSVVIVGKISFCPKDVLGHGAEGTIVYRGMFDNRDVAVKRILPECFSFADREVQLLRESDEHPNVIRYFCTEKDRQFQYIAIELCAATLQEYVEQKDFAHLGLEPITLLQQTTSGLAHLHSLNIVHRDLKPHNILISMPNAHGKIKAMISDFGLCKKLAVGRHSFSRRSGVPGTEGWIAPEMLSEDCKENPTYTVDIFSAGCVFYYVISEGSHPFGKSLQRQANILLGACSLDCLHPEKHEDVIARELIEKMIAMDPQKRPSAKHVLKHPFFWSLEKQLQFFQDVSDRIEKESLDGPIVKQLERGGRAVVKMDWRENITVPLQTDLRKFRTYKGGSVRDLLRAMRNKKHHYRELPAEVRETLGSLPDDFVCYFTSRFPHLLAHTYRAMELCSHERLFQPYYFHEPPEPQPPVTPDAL
Test description: KINOMEscan competition binding
Experimental parameters: compound 10.0 µM
Answers are plain numbers, in %.

# count of solved cases: 8
Chemical structure: CNC(=O)c1cc(Oc2ccc(NC(=O)Nc3ccc(Cl)c(C(F)(F)F)c3)cc2)ccn1
Property measured: kinase still bound, per cent of control
U: %
Numeric result: 74
--
Chemical structure: COCC(=O)NC/C=C/c1ccc2ncnc(Nc3ccc(Oc4ccc(C)nc4)c(C)c3)c2c1
Property measured: kinase still bound, per cent of control
U: %
Numeric result: 82
--
Chemical structure: C[C@@H](Oc1cc(-c2cnn(C3CCNCC3)c2)cnc1N)c1c(Cl)ccc(F)c1Cl
Property measured: kinase still bound, per cent of control
U: %
Numeric result: 42
--
Chemical structure: COc1ccc(N(C(=O)Oc2c(C)cccc2C)c2ccnc(Nc3ccc(N4CCN(C)CC4)cc3)n2)c(OC)c1
Property measured: kinase still bound, per cent of control
U: %
Numeric result: 62
--
Chemical structure: CCN(CC)CCCCNc1ncc2c(n1)N(C)C(=O)N(c1c(Cl)c(OC)cc(OC)c1Cl)C2
Property measured: kinase still bound, per cent of control
U: %
Numeric result: 100
--
Chemical structure: O=C(Nc1cccc(Nc2ncc(Br)c(NCCc3cnc[nH]3)n2)c1)N1CCCC1
Property measured: kinase still bound, per cent of control
U: %
Numeric result: 34
--
Chemical structure: N#CCNC(=O)c1ccc(-c2ccnc(Nc3ccc(N4CCOCC4)cc3)n2)cc1
Property measured: kinase still bound, per cent of control
U: %
Numeric result: 100
--
Chemical structure: C=CC(=O)Nc1cc(-n2c(=O)ccc3cnc4ccc(-c5cn[nH]c5)cc4c32)ccc1C
Property measured: kinase still bound, per cent of control
U: %
Numeric result: 50

# lookup: kinase still bound, per cent of control of `CCN1CCN(C(=O)Cc2ccc(Nc3ncc(F)c(Nc4ccc(C(=O)Nc5ccccc5Cl)cc4)n3)cc2)CC1`
91

----------
Test system: FLT3 (human), P36888 [R834Q]
Test description: KINOMEscan competition binding
Experimental parameters: compound 10.0 µM
// classify: if (kinase still bound, per cent of control < 90%) fulfilled else not fulfilled

Compound: C[C@@H](Oc1cc(-n2cnc3ccc(CN4CCN(C)CC4)cc32)sc1C(N)=O)c1ccccc1C(F)(F)F
Answer label: fulfilled

Consider the compound `CCCS(=O)(=O)Nc1ccc(F)c(C(=O)c2c[nH]c3ncc(Cl)cc23)c1F` . Is its kinase still bound, per cent of control strictly less than 90%?
not fulfilled

Consider the compound `COCC(=O)NC/C=C/c1ccc2ncnc(Nc3ccc(Oc4ccc(C)nc4)c(C)c3)c2c1` . Is its kinase still bound, per cent of control strictly less than 90%?
not fulfilled

Consider the compound `Cc1cc([C@@H](C)Nc2ccccc2C(=O)O)c2nc(N3CCOCC3)cc(=O)n2c1` . Is its kinase still bound, per cent of control strictly less than 90%?
not fulfilled

----------
System: PRKD2 (human)
Test description: KINOMEscan competition binding
Experimental parameters: compound 10.0 µM
Property measured: kinase still bound, per cent of control
# do not omit the unit; it follows the number

Could I get kinase still bound, per cent of control for every one of these entries?
1. CS(=O)(=O)N1CCN(Cc2cc3nc(-c4cccc5[nH]ncc45)nc(N4CCOCC4)c3s2)CC1
2. COc1cc2ncn(-c3cc(OCc4ccccc4C(F)(F)F)c(C(N)=O)s3)c2cc1OC
3. C[C@@H](Oc1cc(-c2cnn(C3CCNCC3)c2)cnc1N)c1c(Cl)ccc(F)c1Cl
4. COc1cc(N2CCN(C)CC2)ccc1Nc1ncc2c(n1)N(C)c1ccccc1C(=O)N2C
5. CNC(=O)c1ccc(Nc2cc(Nc3ccccc3S(=O)(=O)C(C)C)c3cc[nH]c3n2)nc1

1: 100%; 2: 100%; 3: 3.3%; 4: 0.55%; 5: 100%

----------
Answer each item with its documented kinase still bound, per cent of control.
System: DCLK3 (human)
Test description: KINOMEscan competition binding
Experimental parameters: compound 10.0 µM
Answers are plain numbers, in %.

Chemical structure: CS(=O)(=O)N1CCN(Cc2cc3nc(-c4cccc5[nH]ncc45)nc(N4CCOCC4)c3s2)CC1
U: %
Numeric result: 100

Could I get kinase still bound, per cent of control for every one of these entries?
1. CNC(=O)c1ccc(Nc2cc(Nc3ccccc3S(=O)(=O)C(C)C)c3cc[nH]c3n2)nc1
2. COc1cc(C(=O)N2CCC(N3CCN(C)CC3)CC2)ccc1Nc1ncc2c(n1)N(C)c1ccccc1C(=O)N2C
3. CCN(CC)CCCCNc1ncc2c(n1)N(C)C(=O)N(c1c(Cl)c(OC)cc(OC)c1Cl)C2

1: 2.8; 2: 90; 3: 100

Could I get kinase still bound, per cent of control for every one of these entries?
1. COc1cc(N2CCN(C)CC2)ccc1Nc1ncc2c(n1)N(C)c1ccccc1C(=O)N2C
2. COc1ccc(N(C(=O)Oc2c(C)cccc2C)c2ccnc(Nc3ccc(N4CCN(C)CC4)cc3)n2)c(OC)c1
3. N#CCNC(=O)c1ccc(-c2ccnc(Nc3ccc(N4CCOCC4)cc3)n2)cc1
4. C=CC(=O)Nc1ccc(CN(C(=O)Nc2c(Cl)c(OC)cc(OC)c2Cl)c2cc(Nc3ccc(N4CCN(C)CC4)cc3)ncn2)cc1
5. O=C1NC(=O)/C(=C/c2ccc3nccc(-c4ccncc4)c3c2)S1

16
100
0.45
100
11

Could I get kinase still bound, per cent of control for every one of these entries?
1. CCN1CCN(C(=O)Cc2ccc(Nc3ncc(F)c(Nc4ccc(C(=O)Nc5ccccc5Cl)cc4)n3)cc2)CC1
2. CCN(CC)CCCCNc1ncc2cc(-c3cc(OC)cc(OC)c3)c(NC(=O)NC(C)(C)C)nc2n1
3. CN(C)C/C=C/C(=O)Nc1ccc(C(=O)Nc2cccc(Nc3nccc(-c4cccnc4)n3)c2)cc1

1. 80
2. 100
3. 100
